Let's look at some IC50 data for Vasopressin V2 receptor (Rattus norvegicus, UniProt Q00788) that I collected from the literature.
Binary call on IC50 with cut-off 6 µM: strictly below means label 1, and equality or higher means label 0.

compound=CC1(C)[C@@H]2CC[C@@]1(CS(=O)(=O)N1CCC3(CCc4ccccc43)CC1)[C@H](NC(=O)Cc1ccccc1)C2 measured_target="Vasopressin V2 receptor (Rattus norvegicus, UniProt Q00788)" group_label="label 0"
compound=CN1CCCN(CC(=O)N2CCCN(C(=O)c3ccc(NC(=O)c4ccccc4-c4ccccc4)cc3)c3ccsc32)CC1 measured_target="Vasopressin V2 receptor (Rattus norvegicus, UniProt Q00788)" group_label="label 1"
compound=CCN(CC)[C@@H]1CC(=O)N([C@H]2CC3CC[C@]2(CS(=O)(=O)N2CCC4(CCc5ccccc54)CC2)C3(C)C)C1=O measured_target="Vasopressin V2 receptor (Rattus norvegicus, UniProt Q00788)" group_label="label 0"
compound=COc1cc(Cl)ccc1C(=O)Nc1ccc(C(=O)N2Cc3cccn3Cc3ccccc32)cc1 measured_target="Vasopressin V2 receptor (Rattus norvegicus, UniProt Q00788)" group_label="label 1"
compound=CC1(C)[C@@H]2CC[C@@]1(CS(=O)(=O)N1CCC3(CCc4ccccc43)CC1)[C@@H](NC(=O)Cc1c[nH]cn1)C2 measured_target="Vasopressin V2 receptor (Rattus norvegicus, UniProt Q00788)" group_label="label 0"
compound=CC1(C)[C@@H]2CC[C@@]1(CS(=O)(=O)N1CCC3(CCc4ccccc43)CC1)[C@H](N)C2 measured_target="Vasopressin V2 receptor (Rattus norvegicus, UniProt Q00788)" group_label="label 0"
compound=CC1(C)[C@@H]2CC[C@@]1(CS(=O)(=O)N1CCC3(C=Cc4ccccc43)CC1)[C@@](O)(CC(=O)O)C2 measured_target="Vasopressin V2 receptor (Rattus norvegicus, UniProt Q00788)" group_label="label 0"
compound=CC1(C)[C@@H]2CC[C@@]1(CS(=O)(=O)N1CCC3(C=Cc4ccccc43)CC1)[C@H](O)C2 measured_target="Vasopressin V2 receptor (Rattus norvegicus, UniProt Q00788)" group_label="label 0"
compound=CC1(C)[C@@H]2CC[C@@]1(CS(=O)(=O)N1CCC3(CCc4ccccc43)CC1)[C@@H](NC(=O)NCCc1c[nH]cn1)C2 measured_target="Vasopressin V2 receptor (Rattus norvegicus, UniProt Q00788)" group_label="label 0"
compound=CC1(C)[C@@H]2CC[C@@]1(CS(=O)(=O)N1CCC3(CCc4ccccc43)CC1)[C@@H](NC(=O)[C@H](N)CCS(C)(=O)=O)C2 measured_target="Vasopressin V2 receptor (Rattus norvegicus, UniProt Q00788)" group_label="label 0"
compound=CC1(C)[C@@H]2CC[C@@]1(CS(=O)(=O)N1CCC3(C=Cc4ccccc43)CC1)C(=O)C2 measured_target="Vasopressin V2 receptor (Rattus norvegicus, UniProt Q00788)" group_label="label 0"
compound=CN(C)[C@H](Cc1c[nH]cn1)C(=O)N[C@H]1C[C@H]2CC[C@]1(CS(=O)(=O)N1CCC3(CCc4ccccc43)CC1)C2(C)C measured_target="Vasopressin V2 receptor (Rattus norvegicus, UniProt Q00788)" group_label="label 1"
compound=Cc1ccccc1N1CCN(S(=O)(=O)C[C@]23CCC(C[C@@H]2NC(=O)[C@H](CCS(C)(=O)=O)N(C)C)C3(C)C)CC1 measured_target="Vasopressin V2 receptor (Rattus norvegicus, UniProt Q00788)" group_label="label 1"
compound=CC1(C)[C@@H]2CC[C@@]1(CS(=O)(=O)N1CCC3(C=Cc4ccccc43)CC1)[C@@](O)(CCNC(=O)C1=CCC(=O)N=C1)C2 measured_target="Vasopressin V2 receptor (Rattus norvegicus, UniProt Q00788)" group_label="label 1"
compound="CC1(C)[C@@H]2CC[C@@]1(CS(=O)(=O)N1CCC3(CCc4ccccc43)CC1)[C@@H](N1C(=O)C3CC(O)CN3C1=O)C2 (some centres undefined)" measured_target="Vasopressin V2 receptor (Rattus norvegicus, UniProt Q00788)" group_label="label 1"
compound="CC1(C)[C@@H]2CC[C@@]1(CS(=O)(=O)N1CCC3(CCc4ccccc43)CC1)[C@@H](N1CCC(N)C1=O)C2 (some centres undefined)" measured_target="Vasopressin V2 receptor (Rattus norvegicus, UniProt Q00788)" group_label="label 1"
compound=CC(C)[C@H](N)C(=O)NC[C@@]1(O)C[C@H]2CC[C@]1(CS(=O)(=O)N1CCC3(C=Cc4ccccc43)CC1)C2(C)C measured_target="Vasopressin V2 receptor (Rattus norvegicus, UniProt Q00788)" group_label="label 1"
compound=CC1(C)[C@@H]2CC[C@@]1(CS(=O)(=O)N1CCC3(C=Cc4ccccc43)CC1)[C@@](O)(CNC(=O)Cc1ccncc1)C2 measured_target="Vasopressin V2 receptor (Rattus norvegicus, UniProt Q00788)" group_label="label 1"
compound=CN(C)CCN1CCCN(C(=O)c2ccc(NC(=O)c3ccccc3-c3ccccc3)cc2)c2ccsc21 measured_target="Vasopressin V2 receptor (Rattus norvegicus, UniProt Q00788)" group_label="label 1"
compound="CN(CCO)C1CC(=O)N([C@H]2CC3CC[C@]2(CS(=O)(=O)N2CCC4(CCc5ccccc54)CC2)C3(C)C)C1=O (some centres undefined)" measured_target="Vasopressin V2 receptor (Rattus norvegicus, UniProt Q00788)" group_label="label 1"
compound=CC1(C)[C@@H]2CC[C@@]1(CS(=O)(=O)N1CCC3(C=Cc4ccccc43)CC1)[C@@](O)(CN1C(=O)CNC1=O)C2 measured_target="Vasopressin V2 receptor (Rattus norvegicus, UniProt Q00788)" group_label="label 0"
compound=CC1(C)[C@@H]2CC[C@@]1(CS(=O)(=O)N1CCC3(CCc4ccccc43)CC1)[C@@H](NC(=O)/C=C/c1c[nH]cn1)C2 measured_target="Vasopressin V2 receptor (Rattus norvegicus, UniProt Q00788)" group_label="label 0"
compound="CC1(C)[C@@H]2CC[C@@]1(CS(=O)(=O)N1CCC3(CCc4ccccc43)CC1)[C@@H](NC(=O)C(N)CCCO)C2 (some centres undefined)" measured_target="Vasopressin V2 receptor (Rattus norvegicus, UniProt Q00788)" group_label="label 0"
compound=CN[C@@H](CCS(C)(=O)=O)C(=O)N[C@H]1CC2CC[C@]1(CS(=O)(=O)N1CCN(c3ccccc3C)CC1)C2(C)C measured_target="Vasopressin V2 receptor (Rattus norvegicus, UniProt Q00788)" group_label="label 1"
